# assayRemarks: protein stability index of a GFP-peptide fusion (GPS, HEK-293T) (PSI 1-6); higher = more stable;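 further: 24-mer peptide tiles fused after GFP, lentivirally expressed, FACS-sorted into six equal bins by GFP/DsRed ratio, decoded by Illumina sequencing, PSI is the read-weighted mean bin number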
# appliedConditions: treatment: DMSO; c terminus: a fixed tail appended
For each of the sequences below, state its protein stability index.
Answer with the value's number alone.

IN: Dear colleague, I am looking for the recorded protein stability index of the following sequence: PFGESNGNGVHVCNVKYKRWALLS [KLHDC10]
OUT: 2.08

IN: Could you tell me which protein stability index is on file for SNLHRHQRTHTGEKPYKCPECGEI [ZNF263] ?
OUT: 4.22

IN: Name the recorded protein stability index for GVLILFLTFFAFLHCWLNAFAEML [SOAT1] .
OUT: 2.88

IN: Record request: protein stability index value, item LEAGASAASTAAALENLQVEASCS [TRIM39]
OUT: 5.36

IN: Can you share its protein stability index? I mean this sequence: ADGDGGGGQCCRRQDSPSPDFYKQ [PCDHGC5]
OUT: 4.67

IN: Entry QGLIGSVEEQLAQLRCEMEQQNQE [KRT17] : reported protein stability index = ?
OUT: 5.3

IN: Can you share its protein stability index? I mean this sequence: RSGGPPPKKSAPSAVARSNSWMGS [RBMY1A1]
OUT: 3.7

---

Would you mind telling me the reported protein stability index of each entry?
# assayRemarks: protein stability index of a GFP-peptide fusion (GPS, HEK-293T) (PSI 1-6); higher = more stable
# appliedConditions: treatment: MLN4924 1 uM, 8 h; c terminus: a fixed tail appended
Number only, please.

IN: Dear colleague, I am looking for the recorded protein stability index of the following sequence: EFNHTGELLATGDKGGRVVIFQRE [PPP2R2B]
OUT: 3.19

IN: Return reported protein stability index; argument: AALDGGRSLEELTRLAFELFAEEQ [LPCAT4]
OUT: 3.33

IN: Give its protein stability index value. Item: MEAPGLAQAAAAESDSRKVAEETP [PRKX]
OUT: 5.54

IN: Query (sequence): DFCKVFLISGVTLDNCVEVGRIAN [KLHL13] ; field requested: protein stability index
OUT: 2.12

IN: Query (sequence): LRAVRQRSEFTLMAKRIGKDLSNT [STX5] ; field requested: protein stability index
OUT: 2.78

IN: Dear colleague, I am looking for the recorded protein stability index of the following sequence: GSQRARVVNTDHGSPEQLQIPVTD [SDE2]
OUT: 4.98

IN: Returns the measured protein stability index for the input sequence. Input: DTRSGFWYVCRTQGVEGDHCVTSD [TRIM35]
OUT: 3.08

IN: Need protein stability index, item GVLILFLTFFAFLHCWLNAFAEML [SOAT1]
OUT: 2.85

IN: Given DMERFMEEMRELRRKIRELQLRYS [BEX5] , state its recorded protein stability index.
OUT: 2.56

IN: What protein stability index value was documented for this sequence, NFCHIHNCIHRDIKPENILITKQG [CDKL4] ?
OUT: 2.74

IN: Name the recorded protein stability index for YRVLLGHTLILMFIWFVCSLVYYG [SLC22A15] .
OUT: 2.33

IN: GET /values?readout=protein stability index&item= EGRLRYPSRREPPPRRSRSRSHDR [CLK3]
OUT: 5.45

IN: Entry under review: SPSESSETVLALVNCISPLKYFSD [DENND6A] . Reported protein stability index?
OUT: 2.8

Data provenance: the supplement of paper PMC10567573
